test system: HepG2; assay: Cytotoxicity against human HepG2 cells assessed as cell viability at 10 uM after 24 hrs by MTS assay; format: cell-based; details: hepg2, 24 h

| compound | Activity |
| --- | --- |
| CC1(C)CC[C@]2(C(=O)O[C@@H]3O[C@H](CO[C@@H]4O[C@H](CO)[C@@H](O)[C@H](O)[C@H]4O)[C@@H](O)[C@H](O)[C@H]3O)CC[C@]3(C)C(=CC[C@@H]4[C@@]5(C)CC[C@H](O[C@@H]6O[C@H](C(=O)O)[C@@H](O[C@@H]7O[C@@H](CO)[C@H](O)[C@H]7O)[C@H](O)[C@H]6O[C@@H]6O[C@H](CO[C@@H]7O[C@H](CO)[C@@H](O)[C@H](O)[C@H]7O)[C@@H](O)[C@H](O)[C@H]6O)C(C)(C)[C@@H]5CC[C@]43C)[C@@H]2C1 [ELATOSIDE L] | Non-toxic |
| CC1(C)CC[C@]2(C(=O)O[C@@H]3O[C@H](CO)[C@@H](O)[C@H](O)[C@H]3O)CC[C@]3(C)C(=CC[C@@H]4[C@@]5(C)CC[C@H](O[C@@H]6O[C@H](C(=O)O)[C@@H](O)[C@H](O[C@@H]7O[C@H](CO)[C@H](O)[C@H](O)[C@H]7O)[C@H]6O[C@@H]6O[C@H](CO)[C@H](O)[C@H](O)[C@H]6O)C(C)(C)[C@@H]5CC[C@]43C)[C@@H]2C1 [ELATOSIDE D] | Non-toxic |
| CC1(C)CC[C@]2(C(=O)O[C@@H]3O[C@H](CO)[C@@H](O)[C@H](O)[C@H]3O)CC[C@]3(C)C(=CC[C@@H]4[C@@]5(C)CC[C@H](O[C@@H]6O[C@H](C(=O)O)[C@@H](O[C@H]7O[C@@H](CO)[C@H](O)[C@H]7O)[C@H](O[C@@H]7O[C@H](CO)[C@@H](O)[C@H](O)[C@H]7O)[C@H]6O)C(C)(C)[C@@H]5CC[C@]43C)[C@@H]2C1 [STIPULEANOSIDE R2] | Non-toxic |

All figures here come from ChEMBL document CHEMBL1833865.
